meta.source: PubChem BioAssay (NCATS)

- system.name: Rap guanine nucleotide exchange factor 3 (Homo sapiens) (UniProt O95398)
- Sequence (O95398 whole entry, looked up): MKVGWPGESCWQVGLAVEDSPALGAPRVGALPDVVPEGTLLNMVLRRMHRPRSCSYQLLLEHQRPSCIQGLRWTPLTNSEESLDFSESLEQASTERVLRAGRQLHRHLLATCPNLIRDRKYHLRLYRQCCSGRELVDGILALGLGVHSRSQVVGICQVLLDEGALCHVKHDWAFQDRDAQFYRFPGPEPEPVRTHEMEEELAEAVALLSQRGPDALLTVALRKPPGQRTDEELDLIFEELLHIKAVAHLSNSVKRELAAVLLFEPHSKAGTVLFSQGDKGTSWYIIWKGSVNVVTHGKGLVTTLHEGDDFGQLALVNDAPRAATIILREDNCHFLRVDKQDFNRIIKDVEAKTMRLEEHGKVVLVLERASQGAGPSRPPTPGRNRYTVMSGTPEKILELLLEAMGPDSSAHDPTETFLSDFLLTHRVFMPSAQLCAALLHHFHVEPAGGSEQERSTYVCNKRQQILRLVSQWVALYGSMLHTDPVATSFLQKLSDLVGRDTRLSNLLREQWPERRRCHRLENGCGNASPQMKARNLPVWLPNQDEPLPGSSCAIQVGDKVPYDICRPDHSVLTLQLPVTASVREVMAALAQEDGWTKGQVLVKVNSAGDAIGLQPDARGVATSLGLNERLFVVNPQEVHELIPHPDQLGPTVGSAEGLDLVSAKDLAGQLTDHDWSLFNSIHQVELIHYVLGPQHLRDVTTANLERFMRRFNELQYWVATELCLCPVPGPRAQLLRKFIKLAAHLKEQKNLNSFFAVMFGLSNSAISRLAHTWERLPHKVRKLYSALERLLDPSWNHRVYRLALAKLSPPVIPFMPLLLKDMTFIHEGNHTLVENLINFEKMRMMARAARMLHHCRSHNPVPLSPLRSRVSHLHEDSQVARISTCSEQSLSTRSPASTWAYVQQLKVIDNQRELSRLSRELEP
- procedure.text: Confirmatory qHTS for antagonist of cAMP-regulated guanine nucleotide exchange factor 3 (EPAC1) (AID 1645880); note: nearly all actives have a fitted effect of over 55% in size
- condition.set: EPAC1 Rap1B-BODIPY-GDP exchange, fluorescence; series mostly up to 115 µM
Records with an inconclusive call do not appear. Active and inactive are the calls of the source. Calls come from the whole dose curve; as a rule, active = well fitted inhibition curve with a large enough effect; inconclusive = small, poorly fitted or top-dose-only effect; inactive = no such curve, though single readings can be large or run the other way.
Classes used: t = active, f = inactive

compound	system.name	class.assignment
Cc1ccc(CNC(=O)c2ccc3c(=O)[nH]c4c(C(=O)NCC5CCCO5)sc(=S)n4c3c2)cc1 (stereo not drawn)	Rap guanine nucleotide exchange factor 3 (Homo sapiens) (UniProt O95398)	t
O=C(/C=C/c1ccco1)Nc1ccc(Cl)c(-c2nc3cc(Cl)ccc3o2)c1	Rap guanine nucleotide exchange factor 3 (Homo sapiens) (UniProt O95398)	t
COc1cc(CC(=O)Nc2ccccc2N2CCCCC2)cc(OC)c1OC	Rap guanine nucleotide exchange factor 3 (Homo sapiens) (UniProt O95398)	f
